Hey, just so you know, these numbers are from ChEMBL document CHEMBL1143927.

test.system: Serine/threonine-protein kinase Chk1 (Homo sapiens)
Sequence (O14757 whole entry): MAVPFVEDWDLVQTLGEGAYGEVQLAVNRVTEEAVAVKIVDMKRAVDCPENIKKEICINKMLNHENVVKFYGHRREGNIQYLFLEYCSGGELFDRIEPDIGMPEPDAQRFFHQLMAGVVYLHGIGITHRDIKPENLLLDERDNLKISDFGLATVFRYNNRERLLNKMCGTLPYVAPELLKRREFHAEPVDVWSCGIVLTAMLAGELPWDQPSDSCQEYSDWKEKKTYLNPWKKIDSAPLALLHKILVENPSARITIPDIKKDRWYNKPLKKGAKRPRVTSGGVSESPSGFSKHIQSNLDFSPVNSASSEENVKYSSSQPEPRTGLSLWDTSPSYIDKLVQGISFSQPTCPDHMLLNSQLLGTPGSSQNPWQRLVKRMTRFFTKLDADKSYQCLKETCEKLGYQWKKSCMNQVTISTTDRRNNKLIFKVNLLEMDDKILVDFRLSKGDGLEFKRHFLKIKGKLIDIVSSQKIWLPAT
assay.protocol: Inhibition of recombinant Chk1
We begin with a simple list: items and their reported IC50.
Provide only the numeric value, understood in nM.

Some solved entries appear below for comparison.
* COc1cc2c(cc1CCCO)NC(=O)c1ccc(-c3ccc([N+](=O)[O-])c(OC)c3)cc1N2 | 1.9
* COc1cc2c(cc1O)Nc1cc(-c3ccc([N+](=O)[O-])c(OC)c3)ccc1C(=O)N2 | 0.9
* COc1cc2c(cc1OCCO)Nc1cc(-c3ccc([N+](=O)[O-])c(OC)c3)ccc1C(=O)N2 | 0.58
* COc1cc2c(cc1OCCCN)Nc1cc(-c3ccc([N+](=O)[O-])c(OC)c3)ccc1C(=O)N2 | 0.98
* COc1cc2c(cc1OCCN1CCOCC1)Nc1cc(-c3ccc([N+](=O)[O-])c(OC)c3)ccc1C(=O)N2 | 8.1
* COc1cc2c(cc1OCC1CCCCO1)Nc1cc(-c3ccc([N+](=O)[O-])c(OC)c3)ccc1C(=O)N2 (stereo not drawn) | 4.8
* COC(=O)CCc1cc2c(cc1OC)NC(=O)c1ccc(-c3ccc([N+](=O)[O-])c(OC)c3)cc1N2 | 22
* COc1cc2c(cc1OCc1ccccc1C(F)(F)F)Nc1cc(-c3ccc([N+](=O)[O-])c(OC)c3)ccc1C(=O)N2 | 1050

Kindly state the measured IC50 obtained for "COc1cc2c(cc1CCCO)Nc1cc(-c3ccc([N+](=O)[O-])c(OC)c3)ccc1C(=O)N2" with Serine/threonine-protein kinase Chk1 (Homo sapiens). 2.6

"COCCOCCOc1cc2c(cc1OC)NC(=O)c1ccc(-c3ccc([N+](=O)[O-])c(OC)c3)cc1N2" ? 3.1

"COc1cc2c(cc1OCCCCO)Nc1cc(-c3ccc([N+](=O)[O-])c(OC)c3)ccc1C(=O)N2" ? 0.7

"COC(=O)c1cc2c(cc1OC)Nc1cc(-c3ccc([N+](=O)[O-])c(OC)c3)ccc1C(=O)N2" ? 11.2

"COc1cc2c(cc1OCc1csc(C)n1)Nc1cc(-c3ccc([N+](=O)[O-])c(OC)c3)ccc1C(=O)N2" ? 4

"COc1cc2c(cc1CCO)Nc1cc(-c3ccc([N+](=O)[O-])c(OC)c3)ccc1C(=O)N2" ? 3.5

"COc1cc2c(cc1CCC(=O)N(C)C)Nc1cc(-c3ccc([N+](=O)[O-])c(OC)c3)ccc1C(=O)N2" ? 7.9

"COc1cc2c(cc1C(=O)N(C)C)NC(=O)c1ccc(-c3ccc([N+](=O)[O-])c(OC)c3)cc1N2" ? 15.5

"COc1cc2c(cc1CCc1ccncc1)Nc1cc(-c3ccc([N+](=O)[O-])c(OC)c3)ccc1C(=O)N2" ? 16.2

"COc1cc2c(cc1CCC(C)(C)O)Nc1cc(-c3ccc([N+](=O)[O-])c(OC)c3)ccc1C(=O)N2" ? 4

----------
assay.protocol: Cell cycle arrest in human H1299 cells assessed as accumulation at G2/M phase by FACS
Format: functional, cell-based
condition.info: NCI-H1299
readout.name: EC50

Which value of EC50 has been reported for "COc1cc2c(cc1OCCCCO)Nc1cc(-c3ccc([N+](=O)[O-])c(OC)c3)ccc1C(=O)N2" in the records? > 10 µM

----------
Test system: HeLa
assay.protocol: Antiproliferative activity against human HeLa cells after 48 hrs by MTS assay
Assay type: functional, cell-based
pEC50: −log10 of the molar value.
readout.name: pEC50

* COc1cc2c(cc1OCc1ccncc1)Nc1cc(-c3ccc([N+](=O)[O-])c(OC)c3)ccc1C(=O)N2 | < 4.23
* COc1cc2c(cc1CCO)Nc1cc(-c3ccc([N+](=O)[O-])c(OC)c3)ccc1C(=O)N2 | < 4.23
* COc1cc2c(cc1OCc1ccccc1C(F)(F)F)Nc1cc(-c3ccc([N+](=O)[O-])c(OC)c3)ccc1C(=O)N2 | < 4.23
* COc1cc2c(cc1OCCO)Nc1cc(-c3ccc([N+](=O)[O-])c(OC)c3)ccc1C(=O)N2 | < 4.23
* CCc1cc2c(cc1OC)Nc1cc(-c3ccc([N+](=O)[O-])c(OC)c3)ccc1C(=O)N2 | 5.35

Here is the next item to consider.
Which value of pEC50 has been reported for "COc1cc2c(cc1OC)Nc1cc(-c3ccc([N+](=O)[O-])c(OC)c3)ccc1C(=O)N2" in the records? < 4.23

----------
test.system: Serine/threonine-protein kinase Chk1 (Homo sapiens, UniProt O14757)
assay.protocol: Inhibition of human Chk1 in H1299 cells assessed as blockade of Cdc25A degradation
pEC50: −log10 of the molar value.
# pEC50 binned as lower band (below 6), central band (6 to below 7), upper band (7 or more)

Tag the class for "COc1cc2c(cc1OCCCCO)Nc1cc(-c3ccc([N+](=O)[O-])c(OC)c3)ccc1C(=O)N2" lower band

"COc1cc2c(cc1C(=O)N(C)C)NC(=O)c1ccc(-c3ccc([N+](=O)[O-])c(OC)c3)cc1N2" ? lower band

----------
We begin with a simple list: items and their reported pIC50.
test.system: Serine/threonine-protein kinase Chk1 (Homo sapiens, UniProt O14757)
assay.protocol: Inhibition of recombinant Chk1
Please keep in mind that pIC50 is minus log10 of the molar concentration; only the number is needed.

Some solved entries appear below for comparison.
• CCc1cc2c(cc1OC)Nc1cc(-c3ccc([N+](=O)[O-])c(OC)c3)ccc1C(=O)N2 = 8.05
• COc1cc2c(cc1OC)Nc1cc(-c3ccc([N+](=O)[O-])c(OC)c3)ccc1C(=O)N2 = 9.22

Kindly state the measured pIC50 obtained for "COc1cc2c(cc1OCc1ccncc1)Nc1cc(-c3ccc([N+](=O)[O-])c(OC)c3)ccc1C(=O)N2" with Serine/threonine-protein kinase Chk1 (Homo sapiens, UniProt O14757). 8.17

"COc1cc2c(cc1CC(C)(C)O)Nc1cc(-c3ccc([N+](=O)[O-])c(OC)c3)ccc1C(=O)N2" ? 8.47

----------
assay.protocol: Cell cycle arrest in human H1299 cells assessed as accumulation at G2/M phase by FACS
Assay type: functional, cell-based
condition.info: NCI-H1299
pEC50: −log10 of the molar value.
We begin with a simple list: items and their reported pEC50.

Some solved entries appear below for comparison.
• COc1cc2c(cc1CCCO)Nc1cc(-c3ccc([N+](=O)[O-])c(OC)c3)ccc1C(=O)N2 = < 5.00
• COc1cc2c(cc1OCc1csc(C)n1)Nc1cc(-c3ccc([N+](=O)[O-])c(OC)c3)ccc1C(=O)N2 = < 5.00
• COc1cc2c(cc1CCC(=O)N(C)C)Nc1cc(-c3ccc([N+](=O)[O-])c(OC)c3)ccc1C(=O)N2 = < 5.00
• COc1cc2c(cc1OCCO)Nc1cc(-c3ccc([N+](=O)[O-])c(OC)c3)ccc1C(=O)N2 = < 5.00
• COc1cc2c(cc1OC)Nc1cc(-c3ccc([N+](=O)[O-])c(OC)c3)ccc1C(=O)N2 = < 5.00

Which value of pEC50 has been reported for "COc1cc2c(cc1O)Nc1cc(-c3ccc([N+](=O)[O-])c(OC)c3)ccc1C(=O)N2" in the records? < 5.00

COc1cc2c(cc1OCC1CCCCO1)Nc1cc(-c3ccc([N+](=O)[O-])c(OC)c3)ccc1C(=O)N2 (stereo not drawn) ? 5.62

"COc1cc2c(cc1C(=O)N(C)C)NC(=O)c1ccc(-c3ccc([N+](=O)[O-])c(OC)c3)cc1N2" ? < 5.00

"COCCOCCOc1cc2c(cc1OC)NC(=O)c1ccc(-c3ccc([N+](=O)[O-])c(OC)c3)cc1N2" ? < 5.00

"COc1cc2c(cc1CCO)Nc1cc(-c3ccc([N+](=O)[O-])c(OC)c3)ccc1C(=O)N2" ? < 5.00

"COc1cc2c(cc1OCCN1CCOCC1)Nc1cc(-c3ccc([N+](=O)[O-])c(OC)c3)ccc1C(=O)N2" ? 5.62

"COc1cc2c(cc1CC(C)(C)O)Nc1cc(-c3ccc([N+](=O)[O-])c(OC)c3)ccc1C(=O)N2" ? 5.74

"CCc1cc2c(cc1OC)Nc1cc(-c3ccc([N+](=O)[O-])c(OC)c3)ccc1C(=O)N2" ? < 5.00
